# maps each entry to its inhibition at 1 µM
target_system: Amine oxidase [flavin-containing] B (Homo sapiens)
Sequence (P27338 whole entry): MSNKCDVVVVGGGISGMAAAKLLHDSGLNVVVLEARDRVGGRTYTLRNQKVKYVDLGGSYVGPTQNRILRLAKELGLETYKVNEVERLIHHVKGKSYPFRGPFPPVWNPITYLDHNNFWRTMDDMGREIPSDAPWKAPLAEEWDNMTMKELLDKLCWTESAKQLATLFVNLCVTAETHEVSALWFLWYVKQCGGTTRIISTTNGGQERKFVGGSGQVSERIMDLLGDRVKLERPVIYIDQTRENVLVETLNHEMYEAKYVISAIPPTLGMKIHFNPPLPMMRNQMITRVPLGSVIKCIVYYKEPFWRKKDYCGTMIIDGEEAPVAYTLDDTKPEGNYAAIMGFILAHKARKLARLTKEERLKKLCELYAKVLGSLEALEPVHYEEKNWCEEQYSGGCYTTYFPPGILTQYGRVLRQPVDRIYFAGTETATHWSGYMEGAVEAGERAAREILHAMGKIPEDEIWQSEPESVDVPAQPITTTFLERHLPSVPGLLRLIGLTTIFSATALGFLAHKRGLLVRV
condition_context: BTI, 1 h, read-out: INH
Description: Inhibition of recombinant human MAO-B expressed in baculovirus infected BTI insect cells at 1 uM using p-tyramine as substrate preincubated for 30 mins followed by substrate addition and measured after 1 hr by fluorimetric analysis relative to control
A complete answer gives the number and then names the unit.

Illustrative cases are given below, each with its answer.
Field request: inhibition at 1 µM | item: C#CCN(C)Cc1ccc(OCCCCCN2CCN(c3cccc4c3ccn4S(=O)(=O)c3ccccc3)CC2)cc1 91%

Recorded inhibition at 1 µM of C[C@H](NCc1ccc(OCCCCCN2CCN(c3cccc4c3ccn4S(=O)(=O)c3ccccc3)CC2)cc1)C(N)=O , please. 17%

What measured inhibition at 1 µM goes with C#CCNC1CCc2c(OCCCN3CCN(c4cccc5c4ccn5Cc4cccc(Cl)c4)CC3)cccc21 (stereo not given) ? 31%

# lookup: inhibition at 1 µM of C[C@H](NCc1ccc(OCCCCN2CCN(c3cccc4c3ccn4Cc3cccc(Cl)c3)CC2)cc1)C(N)=O 24%

// query inhibition at 1 µM value for entry C[C@H](NCc1ccc(OCCCN2CCN(c3cccc4c3ccn4Cc3cccc(Cl)c3)CC2)cc1)C(N)=O 47%

Continuing:
Looking for the measured inhibition at 1 µM of C#CCNC1CCc2c(OCCCCN3CCN(c4cccc5c4ccn5Cc4cccc(Cl)c4)CC3)cccc21 (stereo not given) , can you help? 100%

Look up inhibition at 1 µM for this compound: C#CCN(C)Cc1ccc(OCCCCCCN2CCN(c3cccc4c3ccn4Cc3cccc(Cl)c3)CC2)cc1 32%

Any idea what inhibition at 1 µM was measured for C[C@H](NCc1ccc(OCCCCN2CCN(c3cccc4c3ccn4S(=O)(=O)c3ccccc3)CC2)cc1)C(N)=O ? 20%

Which inhibition at 1 µM value belongs to C#CCN(C)Cc1ccc(OCCCCN2CCN(c3cccc4c3ccn4S(=O)(=O)c3ccccc3)CC2)cc1 ? 51%

Any idea what inhibition at 1 µM was measured for C#CCNC1CCc2c(OCCCCN3CCN(c4cccc5c4ccn5S(=O)(=O)c4ccccc4)CC3)cccc21 (stereo not given) ? 44%

Quick one: inhibition at 1 µM of C#CCNC1CCc2c(OCCN3CCN(c4cccc5c4ccn5Cc4cccc(Cl)c4)CC3)cccc21 (stereo not given) ? 35%
